tested on: Escherichia coli TOP10; assay: shrunken log2 fold change of peptide-encoding DNA abundance (4.5 h post-induction vs induction); higher = less antimicrobial activity (less host growth inhibition); settings: time post-induction: 4.5 h; library: site-saturation at positions 5, 18, 19, 20
Assign class by shrunken log2 fold change: not lower than 0.06 means y; lower than 0.06 means n.

The examples below pair each entry with its known result.
> print(dat)
                       seq  discrete.label
1  RRIRFRPPRLPRPRPRPRIYPRP               n
2  RRIRQRPPRLPRPRPRPYISPRP               n
3  RRIRWRPPRLPRPRPRPYDWPRP               n
4  RRIRHRPPRLPRPRPRPDIPPRP               n
5  RRIRCRPPRLPRPRPRPIAPPRP               y
6  RRIRGRPPRLPRPRPRPVHWPRP               y

Please tell me: is the sequence RRIRYRPPRLPRPRPRPECFPRP at or over 0.06 in terms of shrunken log2 fold change?
n

Please tell me: is the sequence RRIRWRPPRLPRPRPRPCREPRP at or over 0.06 in terms of shrunken log2 fold change?
n

Please tell me: is the sequence RRIRYRPPRLPRPRPRPPQIPRP at or over 0.06 in terms of shrunken log2 fold change?
n

Please tell me: is the sequence RRIRPRPPRLPRPRPRPYMCPRP at or over 0.06 in terms of shrunken log2 fold change?
n

Please tell me: is the sequence RRIRVRPPRLPRPRPRPWENPRP at or over 0.06 in terms of shrunken log2 fold change?
n

* * *

tested on: Escherichia coli TOP10; test: shrunken log2 fold change of peptide-encoding DNA abundance (4.5 h post-induction vs induction); higher = less antimicrobial activity (less host growth inhibition); settings: time post-induction: 4.5 h; library: site-saturation at positions 5, 18, 19, 20
Assign class by shrunken log2 fold change: not lower than 0.06 means condition met; lower than 0.06 means condition not met.

The examples below pair each entry with its known result.
> print(dat)
                       seq     discrete.label
1  RRIRWRPPRLPRPRPRPKCVPRP  condition not met
2  RRIRQRPPRLPRPRPRPKSNPRP  condition not met
3  RRIRERPPRLPRPRPRPAIYPRP  condition not met
4  RRIRRRPPRLPRPRPRPFEEPRP      condition met
5  RRIRYRPPRLPRPRPRPVHLPRP  condition not met
6  RRIRMRPPRLPRPRPRPMADPRP      condition met

Could you now consider this next sequence?
Please tell me: is the sequence RRIRVRPPRLPRPRPRPRKNPRP at or over 0.06 in terms of shrunken log2 fold change?
condition met

* * *

system: Escherichia coli TOP10; assay: shrunken log2 fold change of peptide-encoding DNA abundance (4.5 h post-induction vs induction); higher = less antimicrobial activity (less host growth inhibition); details: time post-induction: 4.5 h; library: site-saturation at positions 5, 18, 19, 20
Each entry below carries its reported shrunken log2 fold change.

Guide cases for shrunken log2 fold change, answers given:
> print(dat)
                       seq              quantity.kind  result
1  RRIRIRPPRLPRPRPRPLNIPRP  shrunken log2 fold change  -0.925
2  RRIRNRPPRLPRPRPRPQCEPRP  shrunken log2 fold change  0.0399
3  RRIRLRPPRLPRPRPRPTVIPRP  shrunken log2 fold change  -0.059

# get_value(readout='shrunken log2 fold change', item= RRIRTRPPRLPRPRPRPLSAPRP )
0.369

* * *

Each entry below carries its reported shrunken log2 fold change.
tested on: Escherichia coli TOP10; assay: shrunken log2 fold change of peptide-encoding DNA abundance (4.5 h post-induction vs induction); higher = less antimicrobial activity (less host growth inhibition); details: time post-induction: 4.5 h; library: site-saturation at positions 5, 18, 19, 20
# respond with the number and nothing more

> print(dat)
                       seq  numeric.value
1  RRIRDRPPRLPRPRPRPLNRPRP        -0.0679
2  RRIRHRPPRLPRPRPRPIVHPRP         -0.125
3  RRIRRRPPRLPRPRPRPQHVPRP        -0.0783
4  RRIRRRPPRLPRPRPRPPSSPRP          0.303

# get_value(readout='shrunken log2 fold change', item= RRIRHRPPRLPRPRPRPELWPRP )
0.376

# get_value(readout='shrunken log2 fold change', item= RRIRTRPPRLPRPRPRPLSFPRP )
-0.124

# get_value(readout='shrunken log2 fold change', item= RRIRERPPRLPRPRPRPIAEPRP )
0.255

# get_value(readout='shrunken log2 fold change', item= RRIRCRPPRLPRPRPRPHWPPRP )
0.149

* * *

system: Escherichia coli TOP10; assay: shrunken log2 fold change of peptide-encoding DNA abundance (4.5 h post-induction vs induction); higher = less antimicrobial activity (less host growth inhibition); details: time post-induction: 4.5 h; library: site-saturation at positions 5, 18, 19, 20
Each entry below carries its reported shrunken log2 fold change.
# respond with the number and nothing more

> print(dat)
                       seq  numeric.value
1  RRIRSRPPRLPRPRPRPDMYPRP        0.00612
2  RRIRERPPRLPRPRPRPMFLPRP         -0.206
3  RRIRFRPPRLPRPRPRPDPPPRP           0.37
4  RRIRGRPPRLPRPRPRPPSFPRP          0.653
5  RRIRRRPPRLPRPRPRPDMQPRP          0.272

Test system Escherichia coli TOP10; read-out shrunken log2 fold change; what value for RRIRLRPPRLPRPRPRPFRVPRP ?
0.128

Test system Escherichia coli TOP10; read-out shrunken log2 fold change; what value for RRIRGRPPRLPRPRPRPEGRPRP ?
1.39

Test system Escherichia coli TOP10; read-out shrunken log2 fold change; what value for RRIRKRPPRLPRPRPRPYYSPRP ?
-0.373

* * *

Each entry below carries its reported shrunken log2 fold change.
test system: Escherichia coli TOP10; test: shrunken log2 fold change of peptide-encoding DNA abundance (4.5 h post-induction vs induction); higher = less antimicrobial activity (less host growth inhibition); conditions: time post-induction: 4.5 h; library: site-saturation at positions 5, 18, 19, 20;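 note: peptides expressed intracellularly from a pBAD plasmid library in pooled LB shake-flask culture, induced with 0.3% L-arabinose, DNA abundance read by NGS, three biological replicates, DESeq2 with apeglm shrinkage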
# respond with the number and nothing more

> print(dat)
                       seq        target.or.system  numeric.value
1  RRIRGRPPRLPRPRPRPPLCPRP  Escherichia coli TOP10          0.616
2  RRIRERPPRLPRPRPRPNQPPRP  Escherichia coli TOP10         0.0495
3  RRIRGRPPRLPRPRPRPYDNPRP  Escherichia coli TOP10         -0.183
4  RRIRVRPPRLPRPRPRPEKLPRP  Escherichia coli TOP10         0.0465
5  RRIRTRPPRLPRPRPRPLYDPRP  Escherichia coli TOP10         -0.824
6  RRIRDRPPRLPRPRPRPNPEPRP  Escherichia coli TOP10         0.0935

# get_value(readout='shrunken log2 fold change', item= RRIRCRPPRLPRPRPRPMSFPRP )
-0.29

# get_value(readout='shrunken log2 fold change', item= RRIRKRPPRLPRPRPRPHWRPRP )
0.3

# get_value(readout='shrunken log2 fold change', item= RRIRDRPPRLPRPRPRPPFFPRP )
0.174

# get_value(readout='shrunken log2 fold change', item= RRIRHRPPRLPRPRPRPRNHPRP )
-0.481

# get_value(readout='shrunken log2 fold change', item= RRIRARPPRLPRPRPRPITIPRP )
0.222

# get_value(readout='shrunken log2 fold change', item= RRIRGRPPRLPRPRPRPSLKPRP )
0.441

# get_value(readout='shrunken log2 fold change', item= RRIRMRPPRLPRPRPRPIELPRP )
-0.04

# get_value(readout='shrunken log2 fold change', item= RRIRARPPRLPRPRPRPQEWPRP )
0.00318

# get_value(readout='shrunken log2 fold change', item= RRIRIRPPRLPRPRPRPDWDPRP )
-0.318

# get_value(readout='shrunken log2 fold change', item= RRIRVRPPRLPRPRPRPVFYPRP )
-0.178

# get_value(readout='shrunken log2 fold change', item= RRIRKRPPRLPRPRPRPWIWPRP )
1.96

# get_value(readout='shrunken log2 fold change', item= RRIRARPPRLPRPRPRPAFVPRP )
0.315

# get_value(readout='shrunken log2 fold change', item= RRIRFRPPRLPRPRPRPFKPPRP )
-0.147

# get_value(readout='shrunken log2 fold change', item= RRIRSRPPRLPRPRPRPQCSPRP )
-0.0935

# get_value(readout='shrunken log2 fold change', item= RRIRLRPPRLPRPRPRPMEYPRP )
0.015
